Listed below: inhibition at 0.1 µM values for each entry.
tested_on: human 11β-HSD1 (Homo sapiens, UniProt P28845)
Construct: expressed in transfected cells; host or cells: CHO cells (microsomes)
Sequence (P28845 whole entry): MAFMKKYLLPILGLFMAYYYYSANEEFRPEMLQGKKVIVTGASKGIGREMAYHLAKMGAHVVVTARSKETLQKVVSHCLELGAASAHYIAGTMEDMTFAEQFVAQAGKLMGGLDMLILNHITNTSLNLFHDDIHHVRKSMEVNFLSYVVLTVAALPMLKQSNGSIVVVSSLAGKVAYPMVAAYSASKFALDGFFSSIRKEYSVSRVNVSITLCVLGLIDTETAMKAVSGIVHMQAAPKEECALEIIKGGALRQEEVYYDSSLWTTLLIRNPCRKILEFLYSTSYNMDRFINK
assay_notes: Inhibition of a microsomal preparation of 11β-HSD1 (SPA), Biological Test Example 1
Format: biochemical
cond: read-out: Average % inhibition at 100 nM, 100 nM; microsomes from CHO cells overexpressing human 11β-HSD1
Just the number in %, nothing appended.

Past entries and their recorded results:
>>> numeric_result("CC(O)C[C@]1(c2ccccc2)CCCN([C@@H](C)c2ccc(Br)cc2)C(=O)N1 (some centres unmarked)")
95.8
>>> numeric_result("C[C@@H](c1ccc(-c2ccc(=O)n(C3CC3)c2)cc1)N1CCC[C@](CC(C)(C)O)(c2ccccc2)NC1=O")
97.4
>>> numeric_result("C[C@@H](c1ccc(Br)cc1)N1CCC[C@](CC(C)(C)O)(c2ccccc2)NC1=O")
97.5

Query block: Query (molecule): `C[C@@H](c1ccc(-c2ccn(C)c(=O)c2)cc1)N1CCC[C@](CC(C)(C)O)(c2ccccc2)NC1=O` ; field requested: inhibition at 0.1 µM
Result block: 98.3

Query block: Query (molecule): C[C@@H](c1ccc(Br)cc1)N1CCC[C@](CCO)(c2ccccc2)NC1=O (single isomer, unassigned) [EXAMPLE 3 Isomer 2] ; field requested: inhibition at 0.1 µM
Result block: 97.6

Query block: Query (molecule): `C[C@@H](c1ccc(-c2ccn(C3CC3)c(=O)c2)cc1)N1CCC[C@](CC(C)(C)O)(c2ccccc2)OC1=O` ; field requested: inhibition at 0.1 µM
Result block: 86.8

Query block: Query (molecule): C[C@@H](c1ccc(Br)cc1)N1CCC[C@@](CC(C)(C)O)(c2ccccc2)OC1=O (single isomer, unassigned) [EXAMPLE 15 Isomer 2] ; field requested: inhibition at 0.1 µM
Result block: 31.7

Query block: Query (molecule): C[C@@H](c1ccc(Br)cc1)N1CCC[C@](CC(C)(C)O)(c2ccccc2)OC1=O (single isomer, unassigned) [EXAMPLE 15 Isomer 1] ; field requested: inhibition at 0.1 µM
Result block: 86.2

Query block: Query (molecule): `C=C(C)C[C@]1(c2ccccc2)CCCN([C@@H](C)c2ccc(-c3ccc(=O)n(C)c3)cc2)C(=O)N1` ; field requested: inhibition at 0.1 µM
Result block: 97.1

Query block: Query (molecule): `C[C@@H](c1ccc(-c2ccn(C)c(=O)c2)cc1)N1CCC[C@](CC(C)(C)O)(c2ccccc2)OC1=O` ; field requested: inhibition at 0.1 µM
Result block: 80.3

---

Listed below: inhibition at 0.1 µM values for each entry.
tested_on: human 11β-HSD1 (Homo sapiens)
Construct: expressed in transfected cells; host or cells: CHO cells (microsomes)
assay_notes: Inhibition of a microsomal preparation of 11β-HSD1 (SPA), Biological Test Example 1
Type: biochemical
cond: read-out: Average % inhibition at 100 nM, 100 nM; microsomes from CHO cells overexpressing human 11β-HSD1
Answer with the value and then the unit.

Past entries and their recorded results:
>>> result("C[C@@H](c1ccc(Br)cc1)N1CCC[C@](CCC(N)=O)(c2ccccc2)NC1=O [EXAMPLE 5]")
"93.7%"
>>> result("C=C(C)C[C@@]1(c2ccccc2)CCCN([C@@H](C)c2ccc(Br)cc2)C(=O)O1 (single isomer, unassigned) [EXAMPLE 14 Isomer 2]")
"111%"
>>> result("C=CC[C@]1(c2ccccc2)CCCN([C@@H](C)c2ccc(Br)cc2)C(=O)N1 (single isomer, unassigned) [EXAMPLE 2 Isomer 2]")
"96.2%"
>>> result("C[C@@H](c1ccc(-c2ccc(=O)n(C)c2)cc1)N1CCC[C@](CC(C)(C)O)(c2ccccc2)NC1=O [EXAMPLE 12]")
"92.9%"
>>> result("C=C(C)C[C@]1(c2ccccc2)CCCN([C@@H](C)c2ccc(-c3ccn(C)c(=O)c3)cc2)C(=O)N1 [EXAMPLE 9]")
"95.2%"

Lab note: next molecule to report on.
Query block: Query (molecule): C=C(C)C[C@]1(c2ccccc2)CCCN([C@@H](C)c2ccc(Br)cc2)C(=O)O1 (single isomer, unassigned) [EXAMPLE 14 Isomer 1] ; field requested: inhibition at 0.1 µM
Result block: 97.4%
